The values you see were collected from PubChem BioAssay AID2060489.

Listing of entries alongside the reported pIC50.
Test system: 922993-354-T-J3-PDC complex spheroids, viability;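 also: spheroids exposed to compounds for seven days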
Procedure details: Anticancer human tumor 922993-354-T-J3-PDC patient-derived endometrial carcinoma cell line growth inhibition [GQUAD]
Applied conditions: curve of first compound; second compound 10 µM
pIC50: −log10 of the molar value.

Worked cases, pIC50 given:
Compound	pIC50
CCCS(=O)(=O)Nc1ccc(F)c(C(=O)c2c[nH]c3ncc(-c4ccc(Cl)cc4)cc23)c1F + Cc1[nH]c2ccc(F)cc2c1-c1nc2c3cccnc3c3ncccc3c2[nH]1	< 5.00
Cc1[nH]c2ccccc2c1CCNCc1ccc(/C=C/C(=O)NO)cc1 + Cc1cnc(CNC(=O)c2c(=O)c3ccc(N4CCCN(C)CC4)nc3n3c2sc2ccccc23)cn1	> 9.00
COc1ncnc(C2CC2)c1-c1ncc2cnn(Cc3ccc(-c4nc(C(F)(F)F)cn4C(C)C)cc3)c2n1 + Cc1cnc(CNC(=O)c2c(=O)c3ccc(N4CCCN(C)CC4)nc3n3c2sc2ccccc23)cn1	5.49
Cn1ncnc1[C@H]1c2n[nH]c(=O)c3cc(F)cc(c23)N[C@@H]1c1ccc(F)cc1 + CN(C)c1ccc(Nc2c3ccc(NC(=O)CCN4CCCC4)cc3nc3cc(NC(=O)CCN4CCCC4)ccc23)cc1	< 6.50
CC1COCCN1c1cc(C2(O)CC3CCC(C2)O3)c2cnn(-c3ccn[nH]3)c2n1 (configuration not stated) + Cc1[nH]c2ccc(F)cc2c1-c1nc2c3cccnc3c3ncccc3c2[nH]1	6.36

Task: Specify reported pIC50 for the compound shown: CC1COCCN1c1cc(C2(S(C)(=N)=O)CC2)nc(-c2ccnc3[nH]ccc23)n1 (configuration not stated) + Cc1[nH]c2ccc(F)cc2c1-c1nc2c3cccnc3c3ncccc3c2[nH]1
Result: < 5.00

Task: Specify reported pIC50 for the compound shown: CC[C@@]1(O)C(=O)OCc2c1cc1n(c2=O)Cc2cc3c(CN(C)C)c(O)ccc3nc2-1 + Cc1[nH]c2ccc(F)cc2c1-c1nc2c3cccnc3c3ncccc3c2[nH]1
Result: 6.55

Task: Specify reported pIC50 for the compound shown: Nc1ccn(C2OC(CO)C(O)C2(F)F)c(=O)n1 (configuration not stated) + CN(C)c1ccc(Nc2c3ccc(NC(=O)CCN4CCCC4)cc3nc3cc(NC(=O)CCN4CCCC4)ccc23)cc1
Result: > 7.50

Task: Specify reported pIC50 for the compound shown: C#Cc1c(F)ccc2cc(O)cc(-c3ncc4c(N5CC6CCC(C5)N6)nc(OCC56CCCN5CC(F)C6)nc4c3F)c12 (configuration not stated) + CN(C)c1ccc(Nc2c3ccc(NC(=O)CCN4CCCC4)cc3nc3cc(NC(=O)CCN4CCCC4)ccc23)cc1
Result: < 5.00

Task: Specify reported pIC50 for the compound shown: O=C(c1cc(Cc2n[nH]c(=O)c3ccccc23)ccc1F)N1CCN(C(=O)C2CC2)CC1 + Cc1cnc(CNC(=O)c2c(=O)c3ccc(N4CCCN(C)CC4)nc3n3c2sc2ccccc23)cn1
Result: 5.42

Task: Specify reported pIC50 for the compound shown: O=C(NO)c1cnc(N2CCN(S(=O)(=O)c3ccc4ccccc4c3)CC2)nc1 + Cc1[nH]c2ccc(F)cc2c1-c1nc2c3cccnc3c3ncccc3c2[nH]1
Result: 6.04

Task: Specify reported pIC50 for the compound shown: C=CCn1c(=O)c2cnc(Nc3ccc(N4CCN(C)CC4)cc3)nc2n1-c1cccc(C(C)(C)O)n1 + Cc1cnc(CNC(=O)c2c(=O)c3ccc(N4CCCN(C)CC4)nc3n3c2sc2ccccc23)cn1
Result: > 7.50

Task: Specify reported pIC50 for the compound shown: COc1ccc([C@@H](O)c2cc(-c3ncnc4cc(N5CCOCC5)ccc34)c(F)cc2Cl)nn1 + Cc1cnc(CNC(=O)c2c(=O)c3ccc(N4CCCN(C)CC4)nc3n3c2sc2ccccc23)cn1
Result: > 7.50

Task: Specify reported pIC50 for the compound shown: CC[C@@]1(O)C(=O)OCc2c1cc1n(c2=O)Cc2cc3c(CN(C)C)c(O)ccc3nc2-1 + Cc1cnc(CNC(=O)c2c(=O)c3ccc(N4CCCN(C)CC4)nc3n3c2sc2ccccc23)cn1
Result: > 9.00

Task: Specify reported pIC50 for the compound shown: Cc1cccc(N(C)C(=O)C2C(O)CCN2c2nc(C)cc(C(F)(F)F)c2C#N)c1 (configuration not stated) + Cc1cnc(CNC(=O)c2c(=O)c3ccc(N4CCCN(C)CC4)nc3n3c2sc2ccccc23)cn1
Result: > 7.50
